target: T1, LRP2 CR89 (human, UniProt P98164 1025-1102); assay: solid-phase assay on coated CR protein, single-site non-linear fit
T1 construct: domain: CR89; also called YVWR; L2 CR89; not shown: N-terminal hexahistidine and S-peptide tags of pET30(+)a
T1 sequence (P98164 1025-1102): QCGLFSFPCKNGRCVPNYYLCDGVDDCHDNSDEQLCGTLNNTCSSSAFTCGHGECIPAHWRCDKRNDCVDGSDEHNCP
Threshold 40 nM: Kd strictly smaller gives t, otherwise f.

Is it true that Kd reported for MegaRAP1 d3 revertant K217E (ligand, MegaRAP1 d3 with position 217 reverted to wild type; not shown: N-terminal hexahistidine and S-peptide tags of pET30(+)a) LDRLRRVSHQGYTTEAEFEEPRVIDLWDLAQSANLTDKELEAFREELKYFKAKIEAHNHYQKQLEIAHEELRHAESVGDGERVSRSREKHALLEGRTKELGYTVKKHLQDLSGRISRAR is less than 40 nM?
t

Please indicate whether the reported Kd of MegaRAP1 d3 (ligand, V175L lies outside the d3 construct; also called RAPv2A d3; RAP v2 d3; not shown: N-terminal hexahistidine and S-peptide tags of pET30(+)a) LDRLRRVSHQGYTTEAKFEEPRVIDLWDLAQSANLTDKELEAFREELKYFKAKIEAHNHYQKQLEIAHEELRHAESVGDGERVSRSREKHALLEGRTKELGYTVKKHLQDLSGRISRAR is strictly below 40 nM.
t

Is 40 nM strictly greater than the binder's reported Kd? binder: MegaRAP1 d3 double revertant K251E, E270K (ligand, not shown: N-terminal hexahistidine and S-peptide tags of pET30(+)a) LDRLRRVSHQGYTTEAKFEEPRVIDLWDLAQSANLTDKELEAFREELKYFEAKIEAHNHYQKQLEIAHEKLRHAESVGDGERVSRSREKHALLEGRTKELGYTVKKHLQDLSGRISRAR
f

API: query returns whether the binder falls strictly under 40 nM in Kd. Query: MegaRAP1 d3 double revertant A256K, E270K (ligand, not shown: N-terminal hexahistidine and S-peptide tags of pET30(+)a) LDRLRRVSHQGYTTEAKFEEPRVIDLWDLAQSANLTDKELEAFREELKYFKAKIEKHNHYQKQLEIAHEKLRHAESVGDGERVSRSREKHALLEGRTKELGYTVKKHLQDLSGRISRAR
f

Is the reported Kd for MegaRAP1 d3 revertant T213S (ligand, MegaRAP1 d3 with position 213 reverted to wild type; not shown: N-terminal hexahistidine and S-peptide tags of pET30(+)a) LDRLRRVSHQGYSTEAKFEEPRVIDLWDLAQSANLTDKELEAFREELKYFKAKIEAHNHYQKQLEIAHEELRHAESVGDGERVSRSREKHALLEGRTKELGYTVKKHLQDLSGRISRAR strictly below 40 nM?
t

Say whether its Kd is strictly beneath 40 nM. Entry: MegaRAP1 d3 revertant E270K (ligand, MegaRAP1 d3 with position 270 reverted to wild type; also called MegaRAP1 d3 E270K; E270K revertant; not shown: N-terminal hexahistidine and S-peptide tags of pET30(+)a) LDRLRRVSHQGYTTEAKFEEPRVIDLWDLAQSANLTDKELEAFREELKYFKAKIEAHNHYQKQLEIAHEKLRHAESVGDGERVSRSREKHALLEGRTKELGYTVKKHLQDLSGRISRAR
t

Could you please tell me whether Kd recorded for RAP d3 forward mutant E251K, K256A, K270E (ligand, also called triple mutant; not shown: N-terminal hexahistidine and S-peptide tags of pET30(+)a) LDRLRRVSHQGYSTEAEFEEPRVIDLWDLAQSANLTDKELEAFREELKHFKAKIEAHNHYQKQLEIAHEELRHAESVGDGERVSRSREKHALLEGRTKELGYTVKKHLQDLSGRISRAR is less than 40 nM?
f
